STUDY SYSTEM: TTX resistant Na channel of human SNS-expressing cell (SNS) (Homo sapiens)
MEASUREMENT DESCRIPTION: cell-based
CONDITIONS: CHO-K1, compound concentration 12.5 μM; read-out: SNS inhibitory rate (%)
ASSAY ENDPOINT: inhibition at 12.5 µM (%)
Expressed in %, but write only the number.

Given item NC(=O)CNCc1nc2ccc(Oc3ccc(F)cc3)cc2n1C1CCOCC1 , the value recorded as its inhibition at 12.5 µM is 47.8

Given item CCOCCn1c(CN[C@@H](C)C(N)=O)nc2c(F)cc(-c3ccc(F)cc3)cc21 , the value recorded as its inhibition at 12.5 µM is 6.5

Given item C[C@H](NCc1nc2ccc(Oc3ccc(F)cc3F)cc2n1C1CC1)C(N)=O , the value recorded as its inhibition at 12.5 µM is 65.4

Given item CCOCCn1c(CN[C@@H](C)C(N)=O)nc2ccc(-c3ccc(F)c(F)c3)cc21 , the value recorded as its inhibition at 12.5 µM is 17

Given item C[C@H](NCc1nc2ccc(Oc3ccc(F)cc3)cc2n1C[C@H]1CCCO1)C(N)=O , the value recorded as its inhibition at 12.5 µM is 90.5

Given item CCOCCn1c(CN[C@@H](C)C(N)=O)nc2ccc(Oc3ccc(C(C)C)cc3)cc21 , the value recorded as its inhibition at 12.5 µM is 63.9

Given item C[C@H](NCc1nc2ccc(Oc3ccccc3)cc2n1CC1CCOCC1)C(N)=O , the value recorded as its inhibition at 12.5 µM is 29.8

Given item CCOCCn1c(CN[C@H](C)C(N)=O)nc2ccc(Oc3ccc(F)cc3)cc21 , the value recorded as its inhibition at 12.5 µM is 95.7

---

STUDY SYSTEM: TTX resistant Na channel of human SNS-expressing cell (SNS) (Homo sapiens)
MEASUREMENT DESCRIPTION: cell-based
CONDITIONS: CHO-K1, compound concentration 12.5 μM; read-out: SNS inhibitory rate (%)
ASSAY ENDPOINT: inhibition at 12.5 µM (%)
Expressed in %, but write only the number.

Given item CCOCCn1c(CN[C@@H](C)C(N)=O)nc2cc(F)c(-c3ccc(F)c(F)c3)cc21 [Example 183] , the value recorded as its inhibition at 12.5 µM is 72.3

Given item CCOCCn1c(CNCC(N)=O)nc2ccc(-c3ccc(F)cc3)cc21 [Example 67] , the value recorded as its inhibition at 12.5 µM is 30.8

Given item C[C@H](NCc1nc2cc(F)c(-c3ccc(F)cc3)cc2n1C1CCOCC1)C(N)=O [Example 116] , the value recorded as its inhibition at 12.5 µM is 33.2

Given item CCOCCn1c(CN[C@@H](C)C(=O)N2CCNC(C(F)(F)F)C2)nc2ccc(Oc3ccc(F)cc3)cc21 (some centres unmarked) [Example 108] , the value recorded as its inhibition at 12.5 µM is 85.3

Given item C[C@H](NCc1nc2ccc(Oc3ccccc3)cc2n1C[C@@H]1CCCO1)C(N)=O [Example 22] , the value recorded as its inhibition at 12.5 µM is 16.4

Given item C[C@H](NCc1nc2ccc(Oc3ccc(OC(F)(F)F)cc3)cc2n1C1CCOCC1)C(N)=O [Example 130] , the value recorded as its inhibition at 12.5 µM is 42.1

Given item CCOCCn1c(CN[C@@H](C)C(N)=O)nc2ccc(-c3ccc(C)cc3F)cc21 [Example 165] , the value recorded as its inhibition at 12.5 µM is 100

Given item CCOCCn1c(CN[C@@H](C)C(N)=O)nc2ccc(Oc3cccc(Cl)c3)cc21 [Example 29] , the value recorded as its inhibition at 12.5 µM is 27

---

Task for the reader: assign each of the following compounds its reported inhibition at 12.5 µM.
STUDY SYSTEM: TTX resistant Na channel of human SNS-expressing cell (SNS) (Homo sapiens, UniProt Q9Y5Y9)
Sequence (Q9Y5Y9 whole entry, looked up): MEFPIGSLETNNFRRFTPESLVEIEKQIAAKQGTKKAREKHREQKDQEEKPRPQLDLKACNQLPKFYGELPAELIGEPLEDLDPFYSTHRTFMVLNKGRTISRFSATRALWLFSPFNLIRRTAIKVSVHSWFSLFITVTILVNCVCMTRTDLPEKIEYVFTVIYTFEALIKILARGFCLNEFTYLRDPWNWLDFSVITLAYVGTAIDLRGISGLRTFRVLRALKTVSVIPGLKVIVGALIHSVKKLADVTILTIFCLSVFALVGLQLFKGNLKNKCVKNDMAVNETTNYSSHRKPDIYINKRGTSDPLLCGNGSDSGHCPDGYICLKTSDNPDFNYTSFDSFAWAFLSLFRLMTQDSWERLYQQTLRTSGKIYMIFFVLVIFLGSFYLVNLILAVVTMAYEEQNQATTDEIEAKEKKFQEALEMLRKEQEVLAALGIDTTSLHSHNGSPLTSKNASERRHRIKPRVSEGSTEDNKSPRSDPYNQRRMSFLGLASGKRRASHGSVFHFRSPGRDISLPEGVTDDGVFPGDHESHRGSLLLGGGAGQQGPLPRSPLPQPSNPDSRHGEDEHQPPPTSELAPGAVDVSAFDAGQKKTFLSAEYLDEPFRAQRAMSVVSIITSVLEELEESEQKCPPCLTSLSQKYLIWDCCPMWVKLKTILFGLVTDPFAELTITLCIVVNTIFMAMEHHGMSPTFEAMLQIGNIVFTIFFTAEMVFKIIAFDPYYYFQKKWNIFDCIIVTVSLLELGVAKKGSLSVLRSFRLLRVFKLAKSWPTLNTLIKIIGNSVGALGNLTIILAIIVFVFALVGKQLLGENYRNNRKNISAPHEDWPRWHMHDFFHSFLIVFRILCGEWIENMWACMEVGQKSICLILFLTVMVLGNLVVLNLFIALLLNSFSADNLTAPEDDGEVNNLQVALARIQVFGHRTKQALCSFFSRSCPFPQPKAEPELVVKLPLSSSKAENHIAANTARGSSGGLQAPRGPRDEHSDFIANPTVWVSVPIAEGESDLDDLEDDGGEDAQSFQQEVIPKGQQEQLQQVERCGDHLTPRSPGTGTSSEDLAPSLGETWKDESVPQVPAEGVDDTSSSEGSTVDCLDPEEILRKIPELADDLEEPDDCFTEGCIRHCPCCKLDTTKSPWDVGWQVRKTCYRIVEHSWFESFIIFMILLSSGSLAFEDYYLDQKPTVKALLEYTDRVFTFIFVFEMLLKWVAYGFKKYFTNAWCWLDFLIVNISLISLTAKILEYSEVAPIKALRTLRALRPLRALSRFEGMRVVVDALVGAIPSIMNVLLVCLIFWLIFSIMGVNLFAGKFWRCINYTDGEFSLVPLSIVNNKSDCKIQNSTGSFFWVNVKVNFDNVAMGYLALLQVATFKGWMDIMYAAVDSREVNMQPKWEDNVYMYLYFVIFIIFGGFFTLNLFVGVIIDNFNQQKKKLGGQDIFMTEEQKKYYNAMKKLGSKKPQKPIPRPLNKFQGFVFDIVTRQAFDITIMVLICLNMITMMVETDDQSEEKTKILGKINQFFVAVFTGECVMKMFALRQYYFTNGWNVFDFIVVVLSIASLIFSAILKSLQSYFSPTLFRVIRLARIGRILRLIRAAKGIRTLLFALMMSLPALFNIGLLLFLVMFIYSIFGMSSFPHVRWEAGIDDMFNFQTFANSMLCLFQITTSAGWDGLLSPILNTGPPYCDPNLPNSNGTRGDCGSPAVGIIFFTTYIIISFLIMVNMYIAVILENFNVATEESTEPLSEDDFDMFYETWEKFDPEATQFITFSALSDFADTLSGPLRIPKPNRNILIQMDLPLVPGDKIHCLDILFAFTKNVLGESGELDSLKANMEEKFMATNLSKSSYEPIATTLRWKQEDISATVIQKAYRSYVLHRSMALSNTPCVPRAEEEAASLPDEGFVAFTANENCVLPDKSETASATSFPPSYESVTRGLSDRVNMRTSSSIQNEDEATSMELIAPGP
MEASUREMENT DESCRIPTION: cell-based
CONDITIONS: CHO-K1, compound concentration 12.5 μM; read-out: SNS inhibitory rate (%)

Summary: NC(=O)[C@@H]1CCCN1Cc1nc2ccc(Oc3ccccc3)cc2n1C[C@H]1CCCO1 , TTX resistant Na channel of human SNS-expressing cell (SNS) (Homo sapiens, UniProt Q9Y5Y9), inhibition at 12.5 µM = 100%

Summary: CC(C)(NCc1nc2ccc(Oc3ccc(F)cc3)cc2n1C1CCOCC1)C(N)=O , TTX resistant Na channel of human SNS-expressing cell (SNS) (Homo sapiens, UniProt Q9Y5Y9), inhibition at 12.5 µM = 90.4%

Summary: C[C@H](NCc1nc2ccc(Oc3ccc(F)cc3)cc2n1C1CCN(C(=O)OC(C)(C)C)CC1)C(N)=O , TTX resistant Na channel of human SNS-expressing cell (SNS) (Homo sapiens, UniProt Q9Y5Y9), inhibition at 12.5 µM = 30.7%

Summary: CCOCCn1c(CN[C@H](C(N)=O)C(C)C)nc2ccc(-c3ccc(F)cc3)cc21 , TTX resistant Na channel of human SNS-expressing cell (SNS) (Homo sapiens, UniProt Q9Y5Y9), inhibition at 12.5 µM = 26.6%

---

Task for the reader: assign each of the following compounds its reported inhibition at 12.5 µM.
STUDY SYSTEM: TTX resistant Na channel of human SNS-expressing cell (SNS) (Homo sapiens)
MEASUREMENT DESCRIPTION: cell-based
CONDITIONS: CHO-K1, compound concentration 12.5 μM; read-out: SNS inhibitory rate (%)
Expressed in %, but write only the number.

Given item CCOCCn1c(CNC(C)(C)C(N)=O)nc2ccc(OCc3ccccc3)cc21 , the value recorded as its inhibition at 12.5 µM is 16

Given item Cc1ccc(Oc2ccc3nc(CN[C@@H](C)C(N)=O)n(C[C@@H]4CCCO4)c3c2)cc1 , the value recorded as its inhibition at 12.5 µM is 87.2

Given item C[C@H](NCc1nc2ccc(Oc3ccccc3)cc2n1C1CCCC1)C(N)=O , the value recorded as its inhibition at 12.5 µM is 26.6

Given item CCOCCn1c(CNC(C)(C)C(N)=O)nc2ccc(Oc3ccc(F)cc3)cc21 , the value recorded as its inhibition at 12.5 µM is 59.3

---

STUDY SYSTEM: TTX resistant Na channel of human SNS-expressing cell (SNS) (Homo sapiens)
MEASUREMENT DESCRIPTION: cell-based
CONDITIONS: CHO-K1, compound concentration 12.5 μM; read-out: SNS inhibitory rate (%)
ASSAY ENDPOINT: inhibition at 12.5 µM (%)
Expressed in %, but write only the number.

Given item CC(C)n1c(CNCC(N)=O)nc2ccc(Oc3ccccc3)cc21 , the value recorded as its inhibition at 12.5 µM is 16.3

Given item CCOCCn1c(CNCC(N)=O)nc2ccc(-c3ccccc3)cc21 , the value recorded as its inhibition at 12.5 µM is 16.8

Given item CCOCCn1c(CN2CCC[C@H]2C(N)=O)nc2ccc(Oc3ccc(F)cc3)cc21 , the value recorded as its inhibition at 12.5 µM is 95.7

Given item CCOCCn1c(CN[C@H](C(N)=O)C(C)C)nc2ccc(Oc3ccccc3)cc21 , the value recorded as its inhibition at 12.5 µM is 48.8

Given item CCOCCn1c(CN[C@@H](C)C(N)=O)nc2ccc(-c3ccc(C)c(C)c3)cc21 , the value recorded as its inhibition at 12.5 µM is 76.2

Given item NC(=O)CNCc1nc2ccc(Oc3ccc(F)cc3)cc2n1C1CCC1 , the value recorded as its inhibition at 12.5 µM is 14.2

Given item CCOCCn1c(CN[C@@H](C)C(N)=O)nc2ccc(-c3ccc(C)cc3)cc21 , the value recorded as its inhibition at 12.5 µM is 6.1

Given item CCn1c(CN[C@@H](C)C(N)=O)nc2ccc(Oc3ccc(F)c(F)c3)cc21 , the value recorded as its inhibition at 12.5 µM is 82.4

Given item CCOCCn1c(CN[C@@H](C)C(N)=O)nc2ccc(Oc3ccc(C#N)cc3)cc21 , the value recorded as its inhibition at 12.5 µM is 40.6

Given item CCOCCn1c(CNCC(N)=O)nc2ccc(-c3ccc(Cl)cc3)cc21 , the value recorded as its inhibition at 12.5 µM is 7.3

Given item CCOCCn1c(CN[C@@H](C)C(N)=O)nc2cc(C)c(-c3ccc(F)c(F)c3)cc21 , the value recorded as its inhibition at 12.5 µM is 34.3

Given item COCCn1c(CNCC(N)=O)nc2ccc(Oc3ccc(F)cc3)cc21 , the value recorded as its inhibition at 12.5 µM is 9.2

Given item COCCCn1c(CNC(C)(C)C(N)=O)nc2ccc(Oc3ccc(C)cc3)cc21 , the value recorded as its inhibition at 12.5 µM is 47.9

Given item CCOCCn1c(CN[C@@H](C)C(N)=O)nc2ccc(-c3ccc(F)cc3Cl)cc21 , the value recorded as its inhibition at 12.5 µM is 86.1

Given item CCOCCn1c(CNCC(N)=O)nc2ccc(Oc3ccc(Cl)cc3)cc21 , the value recorded as its inhibition at 12.5 µM is 27.4

Given item CCOCCn1c(CNCC(N)=O)nc2ccc(Oc3ccccc3)cc21 , the value recorded as its inhibition at 12.5 µM is 8.4

Given item COCCn1c(CN[C@@H](C)C(N)=O)nc2ccc(Oc3ccc(F)cc3)cc21 , the value recorded as its inhibition at 12.5 µM is 75.7

Given item CCOCCn1c(CN[C@@H](C)C(N)=O)nc2ccc(Oc3cc(F)c(F)cc3F)cc21 , the value recorded as its inhibition at 12.5 µM is 89.4
